System: Wolbachia pipientis
ASSAY_INFO: Anti-Wolbachia Cell-Based Screen
Type: functional
Set-up: scale not given: in the data most compounds retested in dose-response had high values
CONDITION_DESCRIPTION: 5 µM
Hit rate of the full screen: of about 48,000 compounds, about 13,000 (27%) showed an effect of 50% or more. Some of the results follow.
Recorded Percent Effect for the following compounds
Give a bare numeral; the unit % is implied.

Completed entries (count: 5):
NCC(=O)N1CCC2(CC1)CN(C(=O)Cc1ccc(Cl)cc1)CCO2 : 111
Cc1cc(Nc2nc(C)cc(C)n2)cc(C2CCCN2)n1 (stereo unspecified) : 104
O=C(Cc1ccc(Cl)cc1)N1CCC(O)(C(F)(F)F)C1 (stereo unspecified) : -18.33
COc1c(CNC(C)C(=O)NC2CCCC2)c(C)nn1C (stereo unspecified) : 6.635
Cc1noc(CCCC(=O)N2CSCC2C(=O)NCC2CC2)n1 (stereo unspecified) : 8.382

Q: So what's the measured Percent Effect for this one? O=C(CCc1ccc(Cl)cc1)N1CCC(O)(C(F)(F)F)C1 (stereo unspecified)
A: 8.106

Q: So what's the measured Percent Effect for this one? CS(=O)(=O)N1CCC(c2nnc3ccc(C(=O)N4CCCC4)cn23)C1 (stereo unspecified)
A: -3.487
